Reported values of EC50 hGlucagon-R (cAMP) for individual entries
- TESTED_ON: human glucagon receptor (human, UniProt P47871 26-477)
- Sequence (P47871 26-477): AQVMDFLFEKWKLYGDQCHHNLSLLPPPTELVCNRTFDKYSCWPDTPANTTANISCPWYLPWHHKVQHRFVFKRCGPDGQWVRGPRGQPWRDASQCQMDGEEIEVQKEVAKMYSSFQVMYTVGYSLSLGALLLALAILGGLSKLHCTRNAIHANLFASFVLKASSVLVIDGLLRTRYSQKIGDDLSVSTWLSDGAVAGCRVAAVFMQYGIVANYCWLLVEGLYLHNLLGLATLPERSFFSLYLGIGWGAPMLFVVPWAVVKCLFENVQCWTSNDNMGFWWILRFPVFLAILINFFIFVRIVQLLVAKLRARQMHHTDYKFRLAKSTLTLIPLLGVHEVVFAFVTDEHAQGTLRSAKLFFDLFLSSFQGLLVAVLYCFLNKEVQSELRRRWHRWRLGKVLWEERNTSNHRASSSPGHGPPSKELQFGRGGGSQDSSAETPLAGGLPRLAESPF
- EXPERIMENT_DESCRIPTION: cell-based or functional assay
Numbered stars: 1 amine (or outer) side, 2 acyl side, 3 side chain; on linkers, the order of the positions; unused ones are H or OH. Square brackets hold non-standard residues; d marks the D form. Side chains are listed from the residue outwards. Ends that are not written are not given here. γGlu = O=C(O)[C@H](CCC(=O)[*:2])N[*:1]; x53 = not defined here; x70 = not defined here; Aib = CC(C)(N)C(=O)O

# BINDER, EC50 hGlucagon-R (cAMP) (pM)
rows = [
    ("HXQGTFTSDLSKQKDSKAAQDFIEWLKAGGPSSGAPPPS (dSer at 2; K(γE-x53) at 14; C-terminal NH2) [SEQ ID NO: 30]", 7),
    ("H[Aib]QGTFTSDLSKQK([γGlu-x53])ESKAAQDFIEWLKAGGPSSGAPPPS-NH2 (reading uncertain) [SEQ ID NO: 25]", 40.6),
    ("H[Aib]QGTFTSDLSKQK([γGlu-x70])DSRRAQLFIEWLKAGGPSSGAPPPS-NH2 (reading uncertain) [SEQ ID NO: 198]", 2.4),
]
